Source of measurements: patent US20230027985A1

Molecular target: Purified recombinant ADAMTS-7 (rat prodomain/human catalytic domain, SEQ ID No. 01 or 02) (Homo sapiens)
Construct: rat ADAMTS-7 signal peptide + prodomain (rat 1-217, Q1EHB3) (N); 2xStrep tag (C); 6xHis tag (C)
Sequence (Q9UKP4 237-537): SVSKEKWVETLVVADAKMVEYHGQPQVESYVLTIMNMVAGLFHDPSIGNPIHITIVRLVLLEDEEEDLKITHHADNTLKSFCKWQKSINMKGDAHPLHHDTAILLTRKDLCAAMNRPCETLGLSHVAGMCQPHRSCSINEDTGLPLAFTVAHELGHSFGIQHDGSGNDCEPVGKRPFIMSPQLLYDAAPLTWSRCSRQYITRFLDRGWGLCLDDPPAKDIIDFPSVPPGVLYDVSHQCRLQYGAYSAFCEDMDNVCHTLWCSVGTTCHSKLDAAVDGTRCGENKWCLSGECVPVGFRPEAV
Assay: Assay for ADAMTS-7 enzymatic activity (FRET substrate cleavage)
Conditions: FRET substrate SEQ ID No. 11, 120 min at 32° C.; read-out: ADAMTS7-IC50
Recorded pIC50 for the following compounds
pIC50 here: minus log base 10 of the concentration, concentration in moles per litre.

These recorded examples may help you get a feel for the data.
compound="O=C1NC(=O)C(CNC(=O)c2cnn(-c3ccc(F)cc3F)n2)(c2nccs2)N1 (single isomer, unassigned; ent-2) [Example 116]" endpoint_name=pIC50 result_number=7.11
compound="O=C1NC(=O)C(CNC(=O)c2cnn(-c3ccc(F)cc3)n2)(c2ccccn2)N1 (single isomer, unassigned) [Example 97]" endpoint_name=pIC50 result_number=8.00

Looking up O=C1NC(=O)C(CNC(=O)c2cnn(-c3ccc(F)cc3)n2)(C2CCCCC2)N1 (stereo not drawn) , I see its pIC50 listed as 7.85

Entry `O=C1NC(=O)[C@](CNC(=O)c2cnn(-c3ccc(F)c(F)c3)n2)(C2CC2)N1` ; pIC50 = 8.15

For record O=C1NC(=O)C(CNC(=O)c2cnn(-c3ccc(F)cc3)n2)(c2ccnn2CC(F)(F)F)N1 (racemic) the listed pIC50 is 7.30

response.value for O=C1NC(=O)C(CNC(=O)c2cnn(-c3ccc(F)cc3)n2)(C2(F)CC2)N1 (racemic) (field: pIC50) = 6.72

For this compound ( `COc1ccc(-n2ncc(C(=O)NC[C@@]3(C4CC4)NC(=O)NC3=O)n2)cc1` ), measured pIC50 is 7.00

# pIC50 of N#Cc1cccc(-n2ncc(C(=O)NCC3(C4CCC4)NC(=O)NC3=O)n2)c1 (single isomer, unassigned; ent-2) = 7.11

// pIC50 value for CC(C)C1(CNC(=O)c2cnn(-c3ccc(Cl)c(F)c3)n2)NC(=O)NC1=O (racemic) [Example 124] : 7.89

pIC50 reading for `O=C1NC(=O)[C@](CNC(=O)c2cnn(-c3ccc(Cl)c(Cl)c3)n2)(C2CC2)N1` : 7.46

Kindly note the recorded pIC50 for O=C1NC(=O)C(CNC(=O)c2cnn(-c3ccc(F)cc3)n2)(c2nccs2)N1 (stereo not drawn) [Example 114] , which is 7.82

The recorded pIC50 for entry O=C1NC(=O)C(CNC(=O)c2cnn(-c3ccc(F)cc3)n2)(c2ncsc2C(F)(F)F)N1 (stereo not drawn) [Example 136] equals 7.57

Entry O=C1NC(=O)C(CNC(=O)c2cnn(-c3ccccc3)n2)(c2ccccn2)N1 (stereo not drawn) [Example 38] ; pIC50 = 8.00
